Tested on: E28 (patient-derived glioblastoma stem cells of classical subtype)
Experimental Protocol: phenotypic distance (Euclidean, principal components) from DMSO controls (arbitrary units); higher = stronger morphological change
Condition Context: 1000 nM; exposure time: 72 h
Outcome: criterion met for phenotypic distance of at least 3; criterion not met for anything lower.

These solved cases illustrate the format of a correct answer.
- C/C=C(\C)C(=O)N[C@@H](c1ccccc1)[C@@H](O)C(=O)O[C@H]1C[C@@]2(O)[C@@H](OC(=O)c3ccccc3)[C@@H]3[C@]4(OC(C)=O)CO[C@@H]4C[C@H](O)[C@@]3(C)C(=O)[C@H](OC(C)=O)C(=C1C)C2(C)C: criterion met
- NCc1ccccc1CC(=O)N[C@@H]1C(=O)N2C(C(=O)O)=C(CSc3nnnn3CC(=O)O)CS[C@H]12 [Ceforanide]: criterion not met
- C[C@]12CC[C@H](O)C[C@H]1CC[C@@H]1[C@@H]2C[C@@H](O)[C@]2(C)[C@@H](C3=CC(=O)OC3)CC[C@]12O: criterion not met

QUERY: Is reported phenotypic distance greater than or equal to 3 here: CNc1ccc2oc(C[C@H]3O[C@@]4(CC[C@H]3C)O[C@H]([C@H](C)C(=O)c3ccc[nH]3)[C@H](C)C[C@H]4C)nc2c1C(=O)O
RESULT: criterion met

QUERY: Check this molecule for phenotypic distance at or above 3: Nc1ncn(C2OC(CO)C(O)C2O)c(=O)n1 (configuration not stated)
RESULT: criterion not met

QUERY: Hi team, for Clc1ccc(COC(Cn2ccnc2)c2ccc(Cl)cc2Cl)c(Cl)c1 (configuration not stated) , is the recorded phenotypic distance at or above 3?
RESULT: criterion not met

QUERY: Could you verify whether the entry COc1ccc(/C=C\c2cc(OC)c(OC)c(OC)c2)cc1OP(=O)(O)O [Fosbretabulin Disodium] shows phenotypic distance of no less than 3?
RESULT: criterion met

* * *

Tested on: E28
Experimental Protocol: phenotypic distance (Euclidean, principal components) from DMSO controls (arbitrary units); higher = stronger morphological change
Condition Context: 333.3 nM; exposure time: 72 h
Counter-ions that a name gives are not always drawn.
Parameter Measured: phenotypic distance

QUERY: Given CC(=O)O[C@@]12CO[C@@H]1C[C@H](O)[C@@]1(C)C(=O)[C@H](O)C3=C(C)[C@@H](OC(=O)[C@H](O)[C@@H](NC(=O)OC(C)(C)C)c4ccccc4)C[C@@](O)([C@@H](OC(=O)c4ccccc4)[C@H]21)C3(C)C , respond with its phenotypic distance.
RESULT: 4.1

QUERY: Please look at this compound and report its phenotypic distance: Cc1cc(Nc2cc(N3CCN(C)CC3)nc(Sc3ccc(NC(=O)C4CC4)cc3)n2)n[nH]1
RESULT: 2.63

QUERY: Give the reported value of phenotypic distance for this record: Cc1cc(CN2CCN(c3c(Br)cnc4nc(-c5ccc(N6CCN(C)CC6)cc5)[nH]c34)CC2)no1
RESULT: 1.23

QUERY: Return value of phenotypic distance for input OC(c1cc(C(F)(F)F)nc2c(C(F)(F)F)cccc12)C1CCCCN1 (stereo not drawn) [Mefloquine hydrochloride] , no commentary.
RESULT: 0.764

QUERY: Please indicate phenotypic distance recorded for COc1cc(/C=C/C(=O)N2CCC=CC2=O)cc(OC)c1OC
RESULT: 0.74

QUERY: Please indicate phenotypic distance recorded for C=CC(=O)Nc1cc(Nc2nccc(-c3cn(C)c4ccccc34)n2)c(OC)cc1N(C)CCN(C)C [Osimertinib mesylate]
RESULT: 0.864

QUERY: Fill in reported phenotypic distance for this entry: COc1ccc(/C=C\c2cc(OC)c(OC)c(OC)c2)cc1OP(=O)(O)O [Fosbretabulin Disodium]
RESULT: 1.52

QUERY: Name the recorded phenotypic distance of the item CN1C(=O)CC(c2ccccc2)C1=O (stereo not drawn) [Phensuximide] in your answer.
RESULT: 0.45

* * *

System: E34 (patient-derived glioblastoma stem cells of proneural subtype)
Experimental Protocol: phenotypic distance (Euclidean, principal components) from DMSO controls (arbitrary units); higher = stronger morphological change
Condition Context: 12.3 nM; exposure time: 72 h
Parameter Measured: phenotypic distance
// return a plain number; no unit text

QUERY: Assign phenotypic distance to the following record: OCCN1CCN(CCCN2c3ccccc3Sc3ccc(Cl)cc32)CC1
RESULT: 0.866

* * *

Test system: FT3469 (normal neural stem cell line)
Experimental Protocol: phenotypic distance (Euclidean, principal components) from DMSO controls (arbitrary units); higher = stronger morphological change
Condition Context: 37 nM; exposure time: 72 h
Counter-ions that a name gives are not always drawn.
Could you label it Condition met if measured phenotypic distance is 0.7 or higher, and Condition not met otherwise?

# example entries with known answers
- Cc1cc(C)c(CN2CCc3c(Cl)cc(-c4c(C)noc4C)c(Cl)c3C2=O)c(=O)[nH]1: Condition met
- Cc1ccc2c(c1)C1(CCN(CCc3nc(-c4ccccc4)oc3C)CC1)OC(=O)N2: Condition not met
- CN[C@@H]1[C@@H](O)[C@@H](O[C@@H]2[C@@H](O)[C@H](O[C@H]3OC(CN)=CC[C@H]3N)[C@@H](N)C[C@H]2N)OC[C@]1(C)O [Sisomicin sulfate]: Condition not met

QUERY: Is it the case that COc1cc2ncnc(Nc3cccc(Br)c3)c2cc1OC has phenotypic distance reaching or exceeding 0.7?
RESULT: Condition met

QUERY: Please tell me: is the molecule Cc1ccc(C(=O)Nc2ccc(CN3CCN(C)CC3)c(C(F)(F)F)c2)cc1C#Cc1cnc2cccnn12 at or over 0.7 in terms of phenotypic distance?
RESULT: Condition met

QUERY: Hi, just wondering whether C[C@H]1Oc2cc(cnc2N)-c2c(nn(C)c2C#N)CN(C)C(=O)c2ccc(F)cc21 shows phenotypic distance of 0.7 or higher.
RESULT: Condition met

QUERY: Confirm if phenotypic distance reported for the molecule O=C(/C=C\n1cnc(-c2cc(C(F)(F)F)cc(C(F)(F)F)c2)n1)NNc1cnccn1 [Selinexor] is 0.7 or above.
RESULT: Condition met

QUERY: Could you tell me if the measured phenotypic distance of COc1cc(OC)c(C(=O)CCCN2CCCC2)c(OC)c1 [Buflomedil hydrochloride] reaches 0.7 or more?
RESULT: Condition met

QUERY: Determine whether this molecule has phenotypic distance no lower than 0.7: COc1cc([C@@H]2c3cc4c(cc3[C@@H](O[C@@H]3O[C@@H]5CO[C@@H](c6cccs6)O[C@H]5[C@H](O)[C@H]3O)[C@H]3COC(=O)[C@H]23)OCO4)cc(OC)c1O [Teniposide]
RESULT: Condition met

QUERY: Test whether the molecule CC(C)CC(=O)N[C@H](C(=O)N[C@H](C(=O)N[C@@H](CC(C)C)[C@@H](O)CC(=O)N[C@@H](C)C(=O)N[C@@H](CC(C)C)[C@@H](O)CC(=O)O)C(C)C)C(C)C records phenotypic distance of 0.7 or higher.
RESULT: Condition not met

QUERY: Quick check: does O=C(C1CC1)N1CC[C@@H](Cc2n[nH]c(=O)n2-c2ccc(-c3ccc4occc4c3)cc2)C1 have phenotypic distance greater than or equal to 0.7?
RESULT: Condition met

QUERY: Given the entry N=c1ccn2c(n1)O[C@H]1[C@H](O)[C@@H](CO)O[C@H]12 [Ancitabine hydrochloride] , answer whether its phenotypic distance meets or surpasses 0.7.
RESULT: Condition met

QUERY: Dear colleague, could you confirm whether CN(C(=O)CN(CCO)CC(=O)N(C)C(C)(C)Cc1ccccc1)C(C)(C)Cc1ccccc1 has phenotypic distance at or above 0.7?
RESULT: Condition met

QUERY: Is it the case that O=C1CCc2cc(OCCCCc3nnnn3C3CCCCC3)ccc2N1 has phenotypic distance reaching or exceeding 0.7?
RESULT: Condition not met

* * *

This listing pairs compounds with measured surviving fraction.
Tested on: E21 (patient-derived glioblastoma stem cells of mesenchymal subtype);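 also: nuclei counted by high-content imaging of Hoechst-stained cells in laminin-coated 384-well plates, relative to 0.1% DMSO vehicle wells, with staurosporine as cell-death control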
Experimental Protocol: surviving fraction (nuclei count normalised to DMSO); higher = more cells surviving (less toxic)
Condition Context: 12.3 nM; exposure time: 72 h
Where a name gives a salt, the structure may show the parent alone.
Give a plain numeric answer without units written out.

Some compounds with recorded surviving fraction:
• CC(C)C[C@H]1C(=O)N2CCC[C@H]2[C@]2(O)O[C@](NC(=O)[C@@H]3C=C4c5cccc6[nH]c(Br)c(c56)C[C@H]4N(C)C3)(C(C)C)C(=O)N12 [Bromocryptine mesylate] = 1.02
• O=C(/C=C/c1cccnc1)NCCCCC1CCN(C(=O)c2ccccc2)CC1 = 0.977
• CN1C(=O)OC(C)(C)C1=O = 1.02
• COc1cc2c(cc1-c1c(C)noc1C)ncc1[nH]c(=O)n([C@H](C)c3ccccn3)c12 = 1.05
• C[C@H]1Oc2cc(cnc2N)-c2c(nn(C)c2C#N)CN(C)C(=O)c2ccc(F)cc21 = 0.918

QUERY: Hello, please tell me recorded surviving fraction for this one: CN1CCC(NC(=O)c2cc(-c3c(O)cc(O)cc3Oc3ccc([N+](=O)[O-])cc3)on2)CC1
RESULT: 0.959

QUERY: // Input: O=c1[nH]c(=O)n([C@H]2C[C@H](O)[C@@H](CO)O2)cc1I . Output its surviving fraction only.
RESULT: 0.967
